Reported PBM binding z-score is given for each of the following sequences.
# Tested on: LXRa homodimer (NR concentration 270 nM)
# Test Protocol: PBM binding z-score (relative to random genomic background probes); higher = stronger binding; sequences stand for … in GC…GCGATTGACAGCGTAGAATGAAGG

sequence_code=CTACCAAGGTGAACAAGGTCTTTGATTACTATTC assay_metric="PBM binding z-score" observed_result=-0.122
sequence_code=CCGACTGGGGGAGAAAGGTTACCATACCATCCGG assay_metric="PBM binding z-score" observed_result=0.182
sequence_code=CCTGCTAGGTCCTGGTCAGCTAATCTACAGTATG assay_metric="PBM binding z-score" observed_result=-0.575
sequence_code=TAGCCTCGGTCAGATCGGGCCAGTATACGCTATA assay_metric="PBM binding z-score" observed_result=-0.622
sequence_code=ATCGAAAGGTCGTGAGGTGAGTAGACAGAAAGGC assay_metric="PBM binding z-score" observed_result=0.0462
sequence_code=ATCTCTAGGTACAGTTCAGTGAAAGATCGATAGA assay_metric="PBM binding z-score" observed_result=0.57

Kindly review the next sequence as well.
Ask | Return PBM binding z-score for the following sequence: "ACTTACGGGTCAACGAGGTTACAGCACGCGTATA"
Reply | 0.828
